System: MS2 coat protein
RUN DESCRIPTION: apparent KD of MS2 coat protein; higher = weaker reporter binding
CONDITION INFO: Eterna round: R107; input ligand: tryptophan 2.4 mM
ASSAY ENDPOINT: apparent KD of MS2 coat protein (µM)
State the answer as a number, implicitly in µM.

Reported apparent KD of MS2 coat protein of ACAUGAGGAUCACCCAUGUAGCCUAGGGAAGGAGCGGCAUAAAAGCCAGGUAGGUCGCCCGCAUGAGGAUCACCCAUGUCAAGGA [Same State Arginine A GF7] : 0.061

Form field apparent KD of MS2 coat protein, entry CGGUAGGUAGGUCGAUAUCUACCCGUAGAAGGAGCGUAAGAAAAUACAGGUAGGUCGCUACGGAACAUGAGCAUCAGCCAUGUCC [SSArg A #12-Alt Ms2] : 0.0126

apparent KD of MS2 coat protein reading for ACCUGUACGAAAAGUGCAGGACACGGAAUACGAGGACCGGUACGGCCGCCACUCGGAAUAACCUGAGGAUCACCCUGGUACCGUG [TrypAS 10 #AlternativeMS2 #Zipper #StaticStem] : 0.0192

---

Test system: MS2 coat protein
RUN DESCRIPTION: apparent KD of MS2 coat protein; designed switch direction (-1 OFF switch, 1 ON switch): -1; higher = weaker reporter binding
CONDITION INFO: input ligand: FMN 200 uM
ASSAY ENDPOINT: apparent KD of MS2 coat protein (nM)
Give the number; nM is assumed, so skip it.

Measured apparent KD of MS2 coat protein, GCGCACCUACCAAAAGGUAGGUCAACAUGAGGAUCACCCAUGUAGGAUAUCGAUUGCUUUGCAGUCGAGAAGGAUAUGAUGCGC [JL ENG3 3.80 Mod 12] (Eterna round: R96, puzzle: Exclusion NG 3) : 27.2

Per the records, this sequence ( GGAUGCUGAGUAAGGAUAUGGUAGGCUUGCGCCUACCAGAAGGUACAUGAGGAUCACCCAUGUUAGCAUCCAGU [eternacac ex4r4 #3] (Eterna round: R97, puzzle: Brourd's mod of Exclusion 4) ) has apparent KD of MS2 coat protein equal to 19.6

GET /value?item= UUCUCGUCAGGAUAUUUGUUGUUGUUGGAAACGGCGGCGGCGGAGAAGGGACAUGAGGAUCACCCAUGUCUGGU [-27.7, -24.8 kcal, 20% A] (Eterna round: R97, puzzle: Exclusion 4) &field=apparent KD of MS2 coat protein returns 28.5

// apparent KD of MS2 coat protein value for GAAUUCCGAGGAUAUUCGGAACCAGACAUGAGGAUCACCCAUGUGAUGCAGUUUCCGUUCGAAGAAGGUGGAACGC [Eternabot (Original) Solution 28] (Eterna round: R97, puzzle: Exclusion 5) : 22.5

Documented apparent KD of MS2 coat protein of AAAUUGUGAGGAUAUCCAAUAUAUGACAUGAGGAUCACCCAUGUUUCCACUCGUACCUCCGGAGAAGGCACUUAAA [Ex5 #44] (Eterna round: R97, puzzle: Exclusion 5) : 27.1

Sample AAUUGACGCCAAAUAUACAACAUGAGGAUCACCCAUGUACCCUAGGUACGCUCGCAGGCAAGCUUUGCUCGUCCACA [Eternabot (L1) Solution 33] (Eterna round: R97, puzzle: Sensor, turn-off variant 1) ; apparent KD of MS2 coat protein observed: 40.2

// recorded apparent KD of MS2 coat protein for GGAGGACGAGCAGGAUAUUUUCACAUGAGGAUCACCCAUGUGUACUCAGGGUAAUCCUCCGCCGAAAAGAAGGGUUCGGAAUAA [Mat - Exclusion NG 2 - Mod of JL - D81] (Eterna round: R96, puzzle: Exclusion NG 2) : 39.8

Lab note: measured apparent KD of MS2 coat protein of GCACGAAGUGGAGGAUAUCUGGGCGAGGAGCGCAGAGAAGGCCACAUGAGGAUCACCCAUGUGUUCCACGGAUCGCAAACGUGC [exng1 ex2] (Eterna round: R96, puzzle: Exclusion NG 1) was 69.3

// sample AUAUAGUCAGGAUAUACAUGAGGAUCACCCAUGUGGUAGUAGAUACAGUAGAGAUAGAGUAGAAGGGACGAUGA [EX3 #24] (Eterna round: R97, puzzle: Exclusion 3) , its apparent KD of MS2 coat protein was 113
